Data provenance: ChEMBL document CHEMBL6087397

# Tested on: HepG2
# test_summary: Antiproliferative activity against human HepG2 cells assessed as inhibition of cell proliferation incubated for 48 hrs by CCK-8 assay
# Type: functional, cell-based
# condition_summary: HepG2, 48 h
observed_property: IC50

• C=C1C(=O)[C@]23[C@H](OC(=O)CCCC(=O)OCCCCOC(=O)c4ccc(N=C=S)cc4)[C@H]1CC[C@H]2[C@@]12CO[C@]3(O)[C@@H](O)[C@@H]1C(C)(C)CCC2=O = 8.69 µM

Look up IC50 for this compound: C=C1C(=O)[C@]23[C@H](OC(=O)CCC(=O)OCC#CCOC(=O)c4ccc(N=C=S)cc4)[C@H]1CC[C@H]2[C@@]12CO[C@]3(O)[C@@H](O)[C@@H]1C(C)(C)CC[C@@H]2OC(C)=O 7.65 µM

Look up IC50 for this compound: C=C1C(=O)[C@]23[C@H](O)[C@H]1CC[C@H]2[C@@]12CO[C@]3(O)[C@@H](O)[C@@H]1C(C)(C)CC[C@@H]2O 28.1 µM

###

# System: PANC-1
# test_summary: Antiproliferative activity against human PANC-1 cells assessed as inhibition of cell proliferation incubated for 48 hrs by CCK-8 assay
# Assay type: functional, cell-based
# condition_summary: PANC-1, 48 h
// boundary case: IC50 equal to 20 µM maps to -1; strictly smaller maps to 1

• COc1cccc2c1C(=O)c1c(O)c3c(c(O)c1C2=O)C[C@@](O)(C(=O)CO)C[C@@H]3O[C@H]1C[C@H](N)[C@H](O)[C@H](C)O1 = 1

Okay, next one:
Problem: For the compound C=C1C(=O)[C@]23[C@H](O)[C@H]1CC[C@H]2[C@@]12CO[C@]3(O)[C@@H](O)[C@@H]1C(C)(C)CC[C@@H]2O , is IC50 under 20 µM? 1

###

# Test system: HepG2
# test_summary: Antiproliferative activity against human HepG2 cells assessed as inhibition of cell proliferation incubated for 48 hrs by CCK-8 assay
# Assay type: functional, cell-based
# condition_summary: HepG2, 48 h
pIC50: −log10 of the molar value.
observed_property: pIC50

Study these solved cases before continuing.
• C=C1C(=O)[C@]23[C@H](OC(=O)CCCC(=O)OCCCOC(=O)c4ccc(N=C=S)cc4)[C@H]1CC[C@H]2[C@@]12CO[C@]3(O)[C@@H](O)[C@@H]1C(C)(C)CC[C@@H]2OC(C)=O = < 4.40
• C=C1C(=O)[C@]23[C@H](OC(=O)c4ccc(N=C=S)cc4)[C@H]1CC[C@H]2[C@@]12CO[C@]3(O)[C@@H](O)[C@@H]1C(C)(C)CC[C@@H]2O = 5.13

Note: attention shifts to another entry.
Look up pIC50 for this compound: O=C(O)c1ccc(N=C=S)cc1 < 4.40

###

# System: PANC-1
# test_summary: Antiproliferative activity against human PANC-1 cells assessed as inhibition of cell proliferation incubated for 48 hrs by CCK-8 assay
# Type: functional, cell-based
# condition_summary: PANC-1, 48 h
observed_property: pIC50
The scale used: pIC50 is minus the common logarithm of the concentration in molar units.

Look up pIC50 for this compound: C=C1C(=O)[C@]23[C@H](OC(=O)CCCC(=O)OCCCCOC(=O)c4ccc(N=C=S)cc4)[C@H]1CC[C@H]2[C@@]12CO[C@]3(O)[C@@H](O)[C@@H]1C(C)(C)CCC2=O 4.73

Look up pIC50 for this compound: C=C1C(=O)[C@]23[C@H](OC(=O)c4ccc(N=C=S)cc4)[C@H]1CC[C@H]2[C@@]12CO[C@]3(O)[C@@H](O)[C@@H]1C(C)(C)CC[C@@H]2O 4.75

Look up pIC50 for this compound: C=C1C(=O)[C@]23[C@H](OC(=O)CCCC(=O)OCCCOC(=O)c4ccc(N=C=S)cc4)[C@H]1CC[C@H]2[C@@]12CO[C@]3(O)[C@@H](O)[C@@H]1C(C)(C)CC[C@@H]2OC(C)=O 4.61
